test system: Staphylococcus aureus; assay: Antimicrobial activity against Staphylococcus aureus ATCC 6538 after 6 hrs; format: functional; conditions: ATCC 6538, 6 h
PROPERTY: MIC (µg/mL)
Could you give me the number in µg/mL? Just the number is fine.

Lookup: Endpoint output: MIC of `COc1ccc(-c2c[nH]c3ccc(OC)cc23)cc1` . Value?
Found: 313

Lookup: Endpoint output: MIC of `COc1ccc2[nH]cc(-c3ccccc3C=O)c2c1` . Value?
Found: 156

Lookup: Endpoint output: MIC of `COc1ccc2[nH]cc(-c3ccccc3C(C)=O)c2c1` . Value?
Found: 625

Lookup: Endpoint output: MIC of `COc1ccc(-c2cc3ccccc3[nH]2)cc1` . Value?
Found: 635

Lookup: Endpoint output: MIC of `c1ccc2[nH]c(-c3cccc4ccccc34)cc2c1` . Value?
Found: 625

From: ChEMBL document CHEMBL1155357
